Biological target: Somatostatin receptor type 5 (Rattus norvegicus)
Sequence (P30938 whole entry): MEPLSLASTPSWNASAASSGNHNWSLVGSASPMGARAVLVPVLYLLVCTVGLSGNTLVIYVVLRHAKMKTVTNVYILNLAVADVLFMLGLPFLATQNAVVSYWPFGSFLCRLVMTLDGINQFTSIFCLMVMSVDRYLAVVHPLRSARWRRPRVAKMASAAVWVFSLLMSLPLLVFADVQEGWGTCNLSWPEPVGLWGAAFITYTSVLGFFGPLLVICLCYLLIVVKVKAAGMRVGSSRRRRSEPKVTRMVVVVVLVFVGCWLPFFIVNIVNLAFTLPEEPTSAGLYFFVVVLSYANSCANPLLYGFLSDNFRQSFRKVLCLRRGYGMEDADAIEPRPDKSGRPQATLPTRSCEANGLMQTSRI
*1 amine or outer side, *2 acyl side, *3 side chain or, on linkers, in order; H or OH if unused. Where a SMILES comes first, the peptide text is derived from it. Bridges are numbered along the chain shown (N, C = ends). [ ]: non-standard residue; d: D form. ξ: configuration not given here. X2 = CC(C)NCc1ccc(C[C@@H](N[*:1])C(=O)[*:2])cc1; Thr(3ξ) = CC(O)[C@H](N)C(=O)O; ξF = NC(Cc1ccccc1)C(=O)O; ξK = NCCCCC(N)C(=O)O; ξT = CC(O)C(N)C(=O)O
Quantity: Ki (nM)
One number for each entry, in nM.

[
  {
    "Molecule": "CC(O)[C@H](CO)NC(=O)[C@@H]1CSSCC(NC(=O)C(N)Cc2ccccc2)C(=O)N[C@H](Cc2ccccc2)C(=O)N[C@H](Cc2c[nH]c3ccccc23)C(=O)N[C@H](CCCCN)C(=O)N[C@H](C(C)O)C(=O)N1 (some centres not stated)",
    "Target Or System": "Somatostatin receptor type 5 (Rattus norvegicus)",
    "Readout Unit": "nM",
    "Ki": 17
  }
]

So what's the measured Ki for this one? CC(C)NCc1ccc(C[C@H]2NC(=O)[C@H](Cc3c[nH]c4ccccc34)NC(=O)C(Cc3ccccc3)NC(=O)C(Cc3ccccc3)NC(=O)C(CCCCN)NC(=O)[C@H](N)CSSC[C@H](C(=O)O)NC(=O)[C@@H](CO)NC(=O)[C@H](C(C)O)NC(=O)[C@@H](Cc3ccccc3)NC(=O)C(C(C)O)NC2=O)cc1 (some centres not stated) [CH-275] (H-[dC][ξK][ξF][ξF]W[X2][ξT][dF][Thr(3ξ)][dS][dC]-OH; disulfide 1-11)
632

---

molecular target: Somatostatin receptor type 3 (Rattus norvegicus)
Sequence (P30936 whole entry): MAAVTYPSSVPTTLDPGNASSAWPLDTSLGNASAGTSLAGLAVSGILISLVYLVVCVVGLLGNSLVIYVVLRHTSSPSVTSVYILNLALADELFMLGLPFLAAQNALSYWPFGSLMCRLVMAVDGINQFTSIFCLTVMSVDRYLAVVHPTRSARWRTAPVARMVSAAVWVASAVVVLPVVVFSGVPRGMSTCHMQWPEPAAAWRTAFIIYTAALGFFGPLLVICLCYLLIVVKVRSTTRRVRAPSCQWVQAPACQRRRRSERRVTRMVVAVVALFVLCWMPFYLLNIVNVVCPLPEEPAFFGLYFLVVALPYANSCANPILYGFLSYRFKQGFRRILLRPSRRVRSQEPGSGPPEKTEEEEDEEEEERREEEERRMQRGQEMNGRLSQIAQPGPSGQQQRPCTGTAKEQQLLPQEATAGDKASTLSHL
pKi: −log10 of the molar value. Where a SMILES comes first, the peptide text is derived from it. [ ]: non-standard residue; d: D form. d1Nal = N[C@H](Cc1cccc2ccccc12)C(=O)O; Ahp = NCCCCCCC(=O)O
We use 7 as the dividing line for pKi: on or above the line is Yes, below is No.

[
  {
    "Compound": "C[C@@H](O)[C@@H]1NC(=O)[C@H](CCCCN)NC(=O)[C@@H](Cc2c[nH]c3ccccc23)NC(=O)[C@H](Cc2c[nH]c3ccccc23)NC(=O)[C@H](Cc2ccccc2)NC(=O)CCCCCCNC(=O)[C@H](Cc2ccccc2)NC1=O [L-362855] (cyclo([Ahp]FW[dW]KTF))",
    "Target Or System": "Somatostatin receptor type 3 (Rattus norvegicus)",
    "Class Name": "Yes"
  }
]

Please tell me: is the compound C[C@@H](O)[C@@H]1NC(=O)[C@H](CCCCN)NC(=O)[C@@H](Cc2c[nH]c3ccccc23)NC(=O)[C@H](Cc2ccccc2)NC(=O)[C@@H](NC(=O)[C@H](N)Cc2ccccc2)CSSC[C@@H](C(=O)N[C@H](CO)[C@@H](C)O)NC1=O at or over 7 in terms of pKi?
Yes

// same read-out, input: CC(C)[C@H](NC(=O)[C@H](CCCCN)NC(=O)[C@@H](Cc1c[nH]c2ccccc12)NC(=O)[C@H](Cc1ccc(O)cc1)NC(=O)[C@H](Cc1ccccc1)NC(=O)[C@H](N)Cc1ccccc1)C(=O)N[C@@H](Cc1ccccc1)C(=O)N[C@H](Cc1cccc2ccccc12)C(N)=O [BIM 23056] (H-[dF]FY[dW]KVF[d1Nal]-NH2)
No

// same read-out, input: C[C@@H](O)[C@H](NC(=O)[C@H](Cc1ccccc1)NC(=O)[C@@H](NC(=O)[C@H](CCCCN)NC(=O)[C@@H](Cc1c[nH]c2ccccc12)NC(=O)[C@H](Cc1ccccc1)NC(=O)[C@H](Cc1ccccc1)NC(=O)[C@H](N)Cc1ccccc1)[C@@H](C)O)C(N)=O [CAS_133073-82-2] (H-[dF]FF[dW]KTFT-NH2)
Yes

---

molecular target: Somatostatin receptor type 5 (Rattus norvegicus)
pKi: −log10 of the molar value. Where a SMILES comes first, the peptide text is derived from it. [ ]: non-standard residue; d: D form. d1Nal = N[C@H](Cc1cccc2ccccc12)C(=O)O; Ahp = NCCCCCCC(=O)O
We use 8 as the dividing line for pKi: on or above the line is yes (1), below is no (0).

As a guide, the following entries are already answered.
[
  {
    "Molecule": "C[C@@H](O)[C@@H]1NC(=O)[C@H](CCCCN)NC(=O)[C@@H](Cc2c[nH]c3ccccc23)NC(=O)[C@H](Cc2c[nH]c3ccccc23)NC(=O)[C@H](Cc2ccccc2)NC(=O)CCCCCCNC(=O)[C@H](Cc2ccccc2)NC1=O [L-362855] (cyclo([Ahp]FW[dW]KTF))",
    "Class Name": "no (0)"
  },
  {
    "Molecule": "C[C@@H](O)[C@H](NC(=O)[C@H](Cc1ccccc1)NC(=O)[C@@H](NC(=O)[C@H](CCCCN)NC(=O)[C@@H](Cc1c[nH]c2ccccc12)NC(=O)[C@H](Cc1ccccc1)NC(=O)[C@H](Cc1ccccc1)NC(=O)[C@H](N)Cc1ccccc1)[C@@H](C)O)C(N)=O [CAS_133073-82-2] (H-[dF]FF[dW]KTFT-NH2)",
    "Class Name": "yes (1)"
  },
  {
    "Molecule": "CC(C)C1NC(=O)C(CCCCN)NC(=O)C(Cc2c[nH]c3ccccc23)NC(=O)C(Cc2ccc(O)cc2)NC(=O)C(C)N(C)C(=O)C(Cc2ccccc2)NC1=O (stereo not drawn) [CAS_3086456]",
    "Class Name": "no (0)"
  },
  {
    "Molecule": "CC(C)[C@@H]1NC(=O)[C@H](CCCCN)NC(=O)[C@@H](Cc2c[nH]c3ccccc23)NC(=O)[C@H](Cc2ccc(O)cc2)NC(=O)[C@@H](NC(=O)[C@H](N)Cc2ccc3ccccc3c2)CSSC[C@@H](C(=O)N[C@H](C(N)=O)[C@@H](C)O)NC1=O",
    "Class Name": "no (0)"
  }
]

Please tell me: is the molecule CC(C)[C@H](NC(=O)[C@H](CCCCN)NC(=O)[C@@H](Cc1c[nH]c2ccccc12)NC(=O)[C@H](Cc1ccc(O)cc1)NC(=O)[C@H](Cc1ccccc1)NC(=O)[C@@H](N)Cc1ccccc1)C(=O)N[C@@H](Cc1ccccc1)C(=O)N[C@H](Cc1cccc2ccccc12)C(N)=O [BIM 23056] (H-FFY[dW]KVF[d1Nal]-NH2) at or over 8 in terms of pKi?
no (0)

---

Observed pKi values for Somatostatin receptor type 1 (Homo sapiens, UniProt P30872) are listed in what follows.
Where a SMILES comes first, the peptide text is derived from it. Bridges are numbered along the chain shown (N, C = ends). [ ]: non-standard residue; d: D form. d1Nal = N[C@H](Cc1cccc2ccccc12)C(=O)O
Numbers only, as −log10 of the molar value.

Give measured pKi for every item shown.
1. CC(O)[C@@H](NC(=O)[C@H](CCCCN)NC(=O)[C@@H](Cc1c[nH]c2ccccc12)NC(=O)[C@H](Cc1ccccc1)NC(=O)C(Cc1ccccc1)NC(=O)C(N)CS)C(=O)NC(Cc1ccccc1)C(=O)NC(CS)C(N)=O (some centres undefined)
2. CC(C)[C@H](NC(=O)[C@H](CCCCN)NC(=O)[C@@H](Cc1c[nH]c2ccccc12)NC(=O)[C@H](Cc1ccc(O)cc1)NC(=O)[C@H](Cc1ccccc1)NC(=O)[C@H](N)Cc1ccccc1)C(=O)N[C@@H](Cc1ccccc1)C(=O)N[C@H](Cc1cccc2ccccc12)C(N)=O [BIM 23056] (H-[dF]FY[dW]KVF[d1Nal]-NH2)
3. CC(C)[C@@H]1NC(=O)[C@H](CCCCN)NC(=O)[C@@H](Cc2c[nH]c3ccccc23)NC(=O)[C@H](Cc2ccc(O)cc2)NC(=O)[C@@H](NC(=O)[C@H](N)Cc2ccccc2)CSSC[C@@H](C(=O)N[C@@H](Cc2c[nH]c3ccccc23)C(N)=O)NC1=O [CAS_71306] (H-[dF]CY[dW]KVCW-NH2; disulfide 2-7)
4. CC(O)[C@@H](NC(=O)[C@H](CCCCN)NC(=O)[C@@H](Cc1c[nH]c2ccccc12)NC(=O)[C@H](Cc1ccc(O)cc1)NC(=O)C(Cc1ccccc1)NC(=O)C(N)CS)C(=O)NC(Cc1ccccc1)C(=O)NC(CS)C(N)=O (some centres undefined)

1: 6.82; 2: 6.16; 3: 6.32; 4: 7.06

Origin of values: BindingDB's records for doi:10.1007/bfb0000613
